Reported CTG-3D luminescence at 96 h values for the following compounds.
Tested on: HCI-001 (organoid from a triple-negative breast cancer xenograft)
Test: CTG-3D luminescence at 96 h relative to day-0 seeding control (ratio to day 0); higher = more growth / less cytotoxicity; PDxO 3D drug screen, 96 h, CTG-3D normalised to day-0 seeding control.
Details: 100 µM; days in culture: 364
# print the numeric value only

# annotated cases, reported CTG-3D luminescence at 96 h shown
| compound_smiles | measured_target | CTG-3D luminescence at 96 h |
| --- | --- | --- |
| NC(=O)Nc1cc(-c2cccc(F)c2)sc1C(=O)N[C@H]1CCCNC1 | HCI-001 | 0.00492 |
| NC1(C(=O)N[C@@H](CCO)c2ccc(Cl)cc2)CCN(c2nc[nH]c3nccc2-3)CC1 | HCI-001 | 0.375 |
| O=C(c1ccc(F)c(F)c1Nc1ccc(I)cc1F)N1CC(O)([C@@H]2CCCCN2)C1 | HCI-001 | 0.000378 |
| CCc1c2c(nc3ccc(O)cc13)-c1cc3c(c(=O)n1C2)COC(=O)[C@]3(O)CC | HCI-001 | 0.0177 |
| C[C@@H]1COCCN1c1cc(C2([S@](C)(=N)=O)CC2)nc(-c2cc[nH]c3nccc2-3)n1 | HCI-001 | 0.319 |
| C=CCn1c(=O)c2cnc(Nc3ccc(N4CCN(C)CC4)cc3)nc2n1-c1cccc(C(C)(C)O)n1 | HCI-001 | 0.0626 |

Now let's try a different one.
Reported CTG-3D luminescence at 96 h of CC(=O)O[C@H]1C(=O)[C@@]2(C)[C@H]([C@H](OC(=O)c3ccccc3)[C@]3(O)C[C@H](OC(=O)[C@H](O)[C@@H](NC(=O)c4ccccc4)c4ccccc4)C(C)=C1C3(C)C)[C@]1(OC(C)=O)CO[C@@H]1C[C@@H]2O : 0.715

All figures here come from the supplement of paper PMC8882468.
